- System Under Test: Ory c 2
- Assay Info: Competitive fluorescence-quenching assay, Ory c 2
- Experimental Conditions: 5 μM Ory c 2, fluorochrome 1-AMA; read-out: Ligand inhibition constant Ki
Measured Quantity: Ki (nM)

chemical_smiles=CC(C)=CCC/C(C)=C/CC/C(C)=C/CO quantity_unit=nM numeric_readout=1100
chemical_smiles=CCCc1ccc(O)cc1 quantity_unit=nM numeric_readout=2600

###

Overview of recorded pKi for various compounds
- System Under Test: Cav p 1.0101 (Cavia porcellus, UniProt A0A484HM70, S19A)
- Sequence (A0A484HM70 entry or part of it S19A): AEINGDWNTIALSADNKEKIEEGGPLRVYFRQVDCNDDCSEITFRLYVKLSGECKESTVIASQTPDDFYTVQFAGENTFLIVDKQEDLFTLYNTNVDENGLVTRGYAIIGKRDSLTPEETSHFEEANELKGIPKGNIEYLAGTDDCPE
- Assay Info: Competitive fluorescence-quenching assay, Cav p 1.0101
- Type: binding, guinea pig
- Experimental Conditions: Ligand inhibition constant Ki, 5 μM Cav p 1.0101, fluorochrome 1-AMA
- Method: Fluorescence quenching assays were performed as previously described ([45]), with modifications. […] Stock solutions were prepared at a concentration of 10 mM in 100% ethanol for the fluorochromes 1-aminoanthracene (1-AMA), 8-anilino-1-naphthalensulfonic acid (1,8-ANS) and for all ligands, and in 100% methanol for n-phenyl-1-naphthylamine (1-NPN), respectively. […] Fluorescence emission spectra were recorded in 5 nm steps between 420 and 560 nm for 1-AMA and 1,8-ANS and between 380 and 500 nm for 1-NPN. […]
pKi: −log10 of the molar value.
Measured Quantity: pKi

chemical_smiles=CC(C)=CCC/C(C)=C/CC/C(C)=C/CO measured_quantity=pKi numeric_readout=6.22
chemical_smiles=CCCCCCCCCCO measured_quantity=pKi numeric_readout=6.10
